IC50, 1b (BK) NS5BΔ21 (Hepatitis C virus genotype 1b): measured values
Experimental Readout: IC50

{"Compound": "CNC(=O)c1c2cc(C3CC3)c(N(CCC3(OC)CN(C(C)=O)C3)S(C)(=O)=O)cc2nn1-c1ccc(Cl)cc1 [Compound 30]", "Result": "0.5 to 0.99 µM"}
{"Compound": "CNC(=O)c1c2cc(C3CC3)c(N(CC[C@H]3CO[C@@H]3C)S(C)(=O)=O)cc2nn1-c1ccc(Cl)cc1 (single isomer, unassigned) [Compound 33]", "Result": "0.1 to 0.49 µM"}
{"Compound": "CNC(=O)c1c2cc(C3CC3)c(N(CC(F)C3COC3)S(C)(=O)=O)cc2nn1-c1ccc(Cl)cc1 (stereo not shown) [Compound 18]", "Result": "< 0.1 µM"}
{"Compound": "CNC(=O)c1c2cc(C3CC3)c(N(CCC3CN(C(C)=O)C3)S(C)(=O)=O)cc2nn1-c1ccc(Cl)cc1 [Compound 8]", "Result": "0.1 to 0.49 µM"}
{"Compound": "CNC(=O)c1c2cc(C3CC3)c(N(CCC3COC3)S(C)(=O)=O)cc2nn1-c1ccc(C)cn1 [Compound 5]", "Result": "0.5 to 0.99 µM"}
{"Compound": "CNC(=O)c1c2cc(C3CC3)c(N(CCC3CN(C(=O)OC(C)(C)C)C3)S(C)(=O)=O)cc2nn1-c1ccc(Cl)cc1 [Compound 19]", "Result": "0.1 to 0.49 µM"}
{"Compound": "CNC(=O)c1c2cc(C3CC3)c(N(CCN3CC(O)C3)S(C)(=O)=O)cc2nn1-c1ccc(Cl)cc1 [Compound 22]", "Result": "0.5 to 0.99 µM"}
